All values here come from patent US20250026813A1.

molecular target: SARS-CoV-2 spike protein bearing furin mutation and truncation in retention sequence (on pseudoviral envelope) (SARS-CoV-2, UniProt P0DTC2 14-1273); assay: cell-based or functional assay
Assignment: determine reported PV neutralisation IC50 for the given binders.
One number for each entry, in nM.

Please review the following examples before continuing.
YANG-2112 (antibody, V domains shown) VH: QVQLVQSGAEVKKPGASVKVSCKVSGFTLTHLSIHWVRQAPGRGLEWMGGFDPVDGQTVYAQNFQGRVTMTEDTSTDTANMDLNNLKSEDTAVYYCATGVVVPAAPYYYSSGMDVWGQGTTVTVSS VL: QSVLTQPPSTSGTPGQRVTISCSGSSSNIAKNYVYWYQQLPGTAPKLLIYRTNQRPSGVPDRFSGSRSGTSASLAISGLRSEDEATYYCATWDDTLSVIFGGGTNLTVL ... 0.65
YANG-2111 (antibody, V domains shown) VH: GVQLVESGGGLVQPGRSLRLSCAASGFTFDDYALHWVRQVPGKGLEWVSSISWNSDDLGYADSVEGRFTISRDNAKNSLYLQMSSLRTEDTALYYCVKDTRAHYDILAGYRGLDSWGQGTLVTVSS VL: DIVMTQSPLSLPVTPGEPASISCRSTQSLLHSNGYNFLDWYLQKPGQSPQLLIYLGSNRASGVPDRFSGSGSGTDFSLKISRVEAEDIGIYYCIQGLQTPITFGQGTRLEIK ... 1.33

Item YANG-1305 (antibody, V domains shown) VH: QVQLVESGGGVVQPGKSLRLSCAASGFAFSSFGMHWVRQAPGTGLEWLAIISFEGTKKYYADSMKGRITISRDNSKNTLYLQMNSLRAEDTAVYYCAADYGDYDDYYYGVHVWGQGTTVTVSS VL: DIQMTQSPSSLSASVGDRVTITCRASQGIANYLAWYQQKPGKVPKLLIYATSTLQSGVPSRFSGSGSGTDFTLTISSLQPEDVAIYYCQKYDSAPFTFGPGTKVDFK : provide PV neutralisation IC50
0.42
